# systemUnderTest: pig TRPM8 (Sus scrofa, UniProt F1SM15)
# Construct: expressed in transfected cells; host or cells: CHO (pcDNA5/FRT/TO vector; hygromycin B and blasticidin selection)
# Sequence (F1SM15 1-1104): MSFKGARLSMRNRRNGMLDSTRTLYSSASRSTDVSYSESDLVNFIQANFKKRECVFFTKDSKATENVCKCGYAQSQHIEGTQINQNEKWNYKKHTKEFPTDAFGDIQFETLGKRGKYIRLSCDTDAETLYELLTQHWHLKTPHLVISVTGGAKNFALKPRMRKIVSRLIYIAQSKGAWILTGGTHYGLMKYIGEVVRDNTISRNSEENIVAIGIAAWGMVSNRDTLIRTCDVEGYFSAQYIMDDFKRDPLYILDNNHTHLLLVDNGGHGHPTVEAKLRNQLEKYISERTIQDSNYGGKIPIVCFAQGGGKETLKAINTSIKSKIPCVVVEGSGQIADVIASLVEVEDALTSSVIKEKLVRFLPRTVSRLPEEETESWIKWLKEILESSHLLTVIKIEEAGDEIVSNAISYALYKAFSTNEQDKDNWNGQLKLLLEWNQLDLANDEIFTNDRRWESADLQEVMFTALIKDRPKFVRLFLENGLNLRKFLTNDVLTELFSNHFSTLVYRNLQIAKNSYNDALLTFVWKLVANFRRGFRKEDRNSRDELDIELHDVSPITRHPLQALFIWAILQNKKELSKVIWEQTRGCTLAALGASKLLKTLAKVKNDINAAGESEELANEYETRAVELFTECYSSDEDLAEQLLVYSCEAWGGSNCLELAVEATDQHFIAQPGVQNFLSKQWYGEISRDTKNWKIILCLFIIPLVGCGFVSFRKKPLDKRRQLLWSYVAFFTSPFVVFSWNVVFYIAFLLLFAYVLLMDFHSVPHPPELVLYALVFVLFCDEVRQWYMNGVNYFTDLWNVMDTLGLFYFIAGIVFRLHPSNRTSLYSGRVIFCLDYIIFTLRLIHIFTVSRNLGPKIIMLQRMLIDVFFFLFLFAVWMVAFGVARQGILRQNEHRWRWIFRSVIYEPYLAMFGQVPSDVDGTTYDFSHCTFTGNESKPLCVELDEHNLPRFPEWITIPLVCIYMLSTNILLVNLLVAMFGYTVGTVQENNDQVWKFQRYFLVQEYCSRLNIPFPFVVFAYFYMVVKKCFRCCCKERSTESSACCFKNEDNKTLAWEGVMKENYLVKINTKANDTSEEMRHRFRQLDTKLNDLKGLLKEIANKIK
# protocolDetails: In vitro pig TRPM8 fluorescence calcium flux assay (recombinant CHO cells, Fluo4-AM, FDSS6000)
# Assay type: cell-based
# conditionSummary: recombinant CHO cells expressing pig TRPM8; menthol-related EC50, normalized to 100 μM menthol
pEC50: −log10 of the molar value.
assayReadout: pEC50

Consider the following illustrative entries.
compound: COC(=O)CCOc1ccccc1CCNC(=O)[C@]1(O)C[C@H](C)CC[C@H]1C(C)C
systemUnderTest: pig TRPM8 (Sus scrofa, UniProt F1SM15)
pEC50: 6.96
--
compound: CC(C)[C@@H]1CC[C@@H](C)C[C@@]1(O)C(=O)NCCc1ccccc1OCCCO
systemUnderTest: pig TRPM8 (Sus scrofa, UniProt F1SM15)
pEC50: 7.09
--
compound: CC(C)[C@@H]1CC[C@@H](C)C[C@@]1(O)C(=O)NC[C@@H](O)c1cccc(CO)c1
systemUnderTest: pig TRPM8 (Sus scrofa, UniProt F1SM15)
pEC50: 7.97
--
compound: CC(C)[C@@H]1CC[C@@H](C)C[C@@]1(O)C(=O)NCC(=O)c1ccccc1
systemUnderTest: pig TRPM8 (Sus scrofa, UniProt F1SM15)
pEC50: 9.15
--
compound: COc1ccc(CCNC(=O)[C@]2(O)C[C@H](C)CC[C@H]2C(C)C)cc1O
systemUnderTest: pig TRPM8 (Sus scrofa, UniProt F1SM15)
pEC50: 7.59

A: CC(C)[C@@H]1CC[C@@H](C)C[C@@]1(O)C(=O)NCC(=O)Oc1cc(O)cc(O)c1
B: COC(=O)c1ccc(CCNC(=O)[C@]2(O)C[C@H](C)CC[C@H]2C(C)C)cc1
C: CC(C)[C@@H]1CC[C@@H](C)C[C@@]1(O)C(=O)NCC(=O)c1sccc1Cl
D: COC(=O)[C@@H](N)Cc1ccccc1CCNC(=O)[C@]1(O)C[C@H](C)CC[C@H]1C(C)C
Query block: Order the 4 compounds from highest to lowest pEC50. List each label, following the requested order.
Result block: C, D, B, A
(C: 8.40, D: 7.70, B: 7.14, A: 6.44)

a: Cc1cccc([C@H](O)CNC(=O)[C@]2(O)C[C@H](C)CC[C@H]2C(C)C)c1
b: CC(C)[C@@H]1CC[C@@H](C)C[C@@]1(O)C(=O)NCC(=O)c1ccc(F)cc1
Query block: Could you tell me which of a and b has the lower pEC50 reading? Use the label to indicate which entry you chose.
Result block: a

1: COC(=O)COc1ccccc1CCNC(=O)[C@]1(O)C[C@H](C)CC[C@H]1C(C)C
2: CC(C)[C@@H]1CC[C@@H](C)C[C@@]1(O)C(=O)NCCc1ccccc1OCCN
Query block: Form field 'greater pEC50' accepts 1 or 2 ; which applies? Use the label to indicate which entry you chose.
Result block: 2
(2: 9.30, 1: 8.13)

P: CC(C)[C@@H]1CC[C@@H](C)C[C@@]1(O)C(=O)N[C@@H]1COc2ccccc2C1
Q: CC(C)[C@@H]1CC[C@@H](C)C[C@@]1(O)C(=O)NCCc1ccccc1CCO
Query block: Form field 'greater pEC50' accepts P or Q ; which applies? Use the label to indicate which entry you chose.
Result block: P

* * *

# systemUnderTest: pig TRPM8 (Sus scrofa, UniProt F1SM15)
# Construct: expressed in transfected cells; host or cells: CHO (pcDNA5/FRT/TO vector; hygromycin B and blasticidin selection)
# protocolDetails: In vitro pig TRPM8 fluorescence calcium flux assay (recombinant CHO cells, Fluo4-AM, FDSS6000)
# Assay type: cell-based
# conditionSummary: recombinant CHO cells expressing pig TRPM8; menthol-related EC50, normalized to 100 μM menthol
pEC50: −log10 of the molar value.
assayReadout: pEC50

Consider the following illustrative entries.
compound: COC(=O)[C@@H](N)Cc1cccc(CCNC(=O)[C@]2(O)C[C@H](C)CC[C@H]2C(C)C)c1
systemUnderTest: pig TRPM8 (Sus scrofa, UniProt F1SM15)
recordedResult: 8.18

compound: CC(C)[C@@H]1CC[C@@H](C)C[C@@]1(O)C(=O)NCCc1ccc(CO)cc1
systemUnderTest: pig TRPM8 (Sus scrofa, UniProt F1SM15)
recordedResult: 7.92

compound: CC(C)[C@@H]1CC[C@@H](C)C[C@@]1(O)C(=O)NCCc1ccc(O)c([N+](=O)[O-])c1
systemUnderTest: pig TRPM8 (Sus scrofa, UniProt F1SM15)
recordedResult: 7.82

I: CC(C)[C@@H]1CC[C@@H](C)C[C@@]1(O)C(=O)NCC(O)c1ccccc1Cl (some centres unmarked)
II: CC(C)[C@@H]1CC[C@@H](C)C[C@@]1(O)C(=O)NCC1(O)CCc2ccccc21 (some centres unmarked) [Example 23]
Query block: Form field 'greater pEC50' accepts I or II ; which applies? Use the label to indicate which entry you chose.
Result block: II

* * *

# systemUnderTest: pig TRPM8 (Sus scrofa)
# Construct: expressed in transfected cells; host or cells: CHO (pcDNA5/FRT/TO vector; hygromycin B and blasticidin selection)
# protocolDetails: In vitro pig TRPM8 automated patch-clamp assay (SyncroPatch 384PE, CHO cells)
# Assay type: cell-based
# conditionSummary: CHO cells expressing pig TRPM8, 28° C.
assayReadout: EC50 (nM)

Consider the following illustrative entries.
molecule: CC(C)[C@@H]1CC[C@@H](C)C[C@@]1(O)C(=O)NCC(C)(O)c1ccccc1 (some centres unmarked)
recordedResult: 1040

molecule: COC(=O)CCc1ccccc1CCNC(=O)[C@]1(O)C[C@H](C)CC[C@H]1C(C)C
recordedResult: 2000

molecule: CC(C)[C@@H]1CC[C@@H](C)C[C@@]1(O)C(=O)NCC(=O)c1ccccc1
recordedResult: 596

A: CC(C)[C@@H]1CC[C@@H](C)C[C@@]1(O)C(=O)NCC(=O)c1cccs1
B: CCOC(=O)c1cccc(CCNC(=O)[C@]2(O)C[C@H](C)CC[C@H]2C(C)C)c1
Query block: Form field 'greater EC50' accepts A or B ; which applies? Use the label to indicate which entry you chose.
Result block: B
(B: 5400 nM, A: 1560 nM)

a: CC(C)[C@@H]1CC[C@@H](C)C[C@@]1(O)C(=O)NCCOC(=O)c1ccccc1
b: COC(=O)c1cccc(CCNC(=O)[C@]2(O)C[C@H](C)CC[C@H]2C(C)C)c1
Query block: Could you tell me which of a and b has the lower EC50 reading? Use the label to indicate which entry you chose.
Result block: b
(b: 2440 nM, a: 5070 nM)

P: CC(C)[C@@H]1CC[C@@H](C)C[C@@]1(O)C(=O)NCC(CO)c1ccccc1 (some centres unmarked) [Example 70]
Q: CC(C)[C@@H]1CC[C@@H](C)C[C@@]1(O)C(=O)NCCOc1ccccc1
R: CC(C)[C@@H]1CC[C@@H](C)C[C@@]1(O)C(=O)NCCc1ccc(CO)cc1
Query block: Order the 3 molecules from highest to lowest EC50. List each label, following the requested order.
Result block: Q, P, R
(Q: 5600 nM, P: 3740 nM, R: 1770 nM)

* * *

# systemUnderTest: human TRPM8 (Homo sapiens, UniProt Q7Z2W7)
# Construct: expressed in transfected cells; host or cells: CHO (p658 mammalian expression vector)
# Sequence (Q7Z2W7 whole entry): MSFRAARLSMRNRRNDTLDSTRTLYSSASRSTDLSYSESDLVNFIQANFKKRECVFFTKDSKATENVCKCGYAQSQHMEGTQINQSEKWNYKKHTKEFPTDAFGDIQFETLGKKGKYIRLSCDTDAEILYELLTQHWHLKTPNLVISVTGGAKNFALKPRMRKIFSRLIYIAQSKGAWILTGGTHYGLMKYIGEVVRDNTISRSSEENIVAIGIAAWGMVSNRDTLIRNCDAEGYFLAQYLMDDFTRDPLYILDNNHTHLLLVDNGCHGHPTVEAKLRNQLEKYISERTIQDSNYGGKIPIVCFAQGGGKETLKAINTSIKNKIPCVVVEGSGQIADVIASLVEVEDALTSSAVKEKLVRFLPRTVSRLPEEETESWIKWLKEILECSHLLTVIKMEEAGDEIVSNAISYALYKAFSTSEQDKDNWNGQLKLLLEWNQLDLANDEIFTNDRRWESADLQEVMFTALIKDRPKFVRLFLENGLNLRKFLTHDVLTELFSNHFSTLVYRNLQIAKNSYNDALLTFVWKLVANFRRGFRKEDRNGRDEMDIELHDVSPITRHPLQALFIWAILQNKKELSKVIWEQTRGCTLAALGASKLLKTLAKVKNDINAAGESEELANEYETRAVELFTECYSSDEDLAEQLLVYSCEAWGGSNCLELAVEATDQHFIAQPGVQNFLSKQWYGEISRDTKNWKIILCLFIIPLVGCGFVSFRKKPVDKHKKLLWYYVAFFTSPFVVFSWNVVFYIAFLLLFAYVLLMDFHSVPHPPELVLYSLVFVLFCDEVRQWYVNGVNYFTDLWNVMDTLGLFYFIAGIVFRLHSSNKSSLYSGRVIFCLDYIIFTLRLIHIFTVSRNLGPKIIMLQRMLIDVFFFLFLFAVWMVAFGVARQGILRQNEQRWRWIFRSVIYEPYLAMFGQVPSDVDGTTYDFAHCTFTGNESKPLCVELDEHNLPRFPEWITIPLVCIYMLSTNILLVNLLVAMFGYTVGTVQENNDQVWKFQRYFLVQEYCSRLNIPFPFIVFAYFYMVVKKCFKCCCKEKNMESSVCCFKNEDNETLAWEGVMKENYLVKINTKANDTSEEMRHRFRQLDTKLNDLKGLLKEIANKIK
# protocolDetails: In vitro human TRPM8 automated patch-clamp assay (SyncroPatch 384PE, CHO cells)
# Assay type: cell-based
# conditionSummary: CHO cells expressing human TRPM8, 28° C.
pEC50: −log10 of the molar value.
assayReadout: pEC50

compound: CC(C)[C@@H]1CC[C@@H](C)C[C@@]1(O)C(=O)NCCc1ccccc1OCCCO [Example 80]
pEC50: 5.74

I: CC(C)[C@@H]1CC[C@@H](C)C[C@@]1(O)C(=O)NCCc1ccccc1OCC(N)=O [Example 81]
II: CC(C)[C@@H]1CC[C@@H](C)C[C@@]1(O)C(=O)NCCOc1ccccc1 [Example 120]
Query block: Could you tell me which of I and II has the lower pEC50 reading? Use the label to indicate which entry you chose.
Result block: II
(II: 5.44, I: 5.82)

a: CC(C)[C@@H]1CC[C@@H](C)C[C@@]1(O)C(=O)NCC(=O)c1ccccc1F [Example 85]
b: CC(C)[C@@H]1CC[C@@H](C)C[C@@]1(O)C(=O)NCCc1ccccc1CO [Example 14]
Query block: Form field 'greater pEC50' accepts a or b ; which applies? Use the label to indicate which entry you chose.
Result block: a

* * *

# systemUnderTest: pig TRPM8 (Sus scrofa)
# Construct: expressed in transfected cells; host or cells: CHO (pcDNA5/FRT/TO vector; hygromycin B and blasticidin selection)
# protocolDetails: In vitro pig TRPM8 fluorescence calcium flux assay (recombinant CHO cells, Fluo4-AM, FDSS6000)
# Type: cell-based
# conditionSummary: recombinant CHO cells expressing pig TRPM8; menthol-related EC50, normalized to 100 μM menthol
pEC50: −log10 of the molar value.
assayReadout: pEC50

molecule: CC(C)[C@@H]1CC[C@@H](C)C[C@@]1(O)C(=O)NCCc1ccccc1OCCO
pEC50: 8.09

P: COC(=O)COc1cccc(CCNC(=O)[C@]2(O)C[C@H](C)CC[C@H]2C(C)C)c1
Q: CC(C)[C@@H]1CC[C@@H](C)C[C@@]1(O)C(=O)NCC(CCO)c1ccccc1 (stereo partly drawn)
Query block: Form field 'greater pEC50' accepts P or Q ; which applies? Use the label to indicate which entry you chose.
Result block: P

Entry source: patent US20240124408A1
